Value source: patent US20220041613A1

molecules and their reported pIC50
- ASSAY_TARGET: EGFR SVD (Homo sapiens, UniProt P00533, INS770SVD)
- Construct: expressed in transfected cells; host or cells: BaF3 (murine pro-B), retroviral pMXs-IRES-Blasticidin, selected for IL-3 independence
- Sequence (P00533 with tags, fused parts or gaps INS770SVD): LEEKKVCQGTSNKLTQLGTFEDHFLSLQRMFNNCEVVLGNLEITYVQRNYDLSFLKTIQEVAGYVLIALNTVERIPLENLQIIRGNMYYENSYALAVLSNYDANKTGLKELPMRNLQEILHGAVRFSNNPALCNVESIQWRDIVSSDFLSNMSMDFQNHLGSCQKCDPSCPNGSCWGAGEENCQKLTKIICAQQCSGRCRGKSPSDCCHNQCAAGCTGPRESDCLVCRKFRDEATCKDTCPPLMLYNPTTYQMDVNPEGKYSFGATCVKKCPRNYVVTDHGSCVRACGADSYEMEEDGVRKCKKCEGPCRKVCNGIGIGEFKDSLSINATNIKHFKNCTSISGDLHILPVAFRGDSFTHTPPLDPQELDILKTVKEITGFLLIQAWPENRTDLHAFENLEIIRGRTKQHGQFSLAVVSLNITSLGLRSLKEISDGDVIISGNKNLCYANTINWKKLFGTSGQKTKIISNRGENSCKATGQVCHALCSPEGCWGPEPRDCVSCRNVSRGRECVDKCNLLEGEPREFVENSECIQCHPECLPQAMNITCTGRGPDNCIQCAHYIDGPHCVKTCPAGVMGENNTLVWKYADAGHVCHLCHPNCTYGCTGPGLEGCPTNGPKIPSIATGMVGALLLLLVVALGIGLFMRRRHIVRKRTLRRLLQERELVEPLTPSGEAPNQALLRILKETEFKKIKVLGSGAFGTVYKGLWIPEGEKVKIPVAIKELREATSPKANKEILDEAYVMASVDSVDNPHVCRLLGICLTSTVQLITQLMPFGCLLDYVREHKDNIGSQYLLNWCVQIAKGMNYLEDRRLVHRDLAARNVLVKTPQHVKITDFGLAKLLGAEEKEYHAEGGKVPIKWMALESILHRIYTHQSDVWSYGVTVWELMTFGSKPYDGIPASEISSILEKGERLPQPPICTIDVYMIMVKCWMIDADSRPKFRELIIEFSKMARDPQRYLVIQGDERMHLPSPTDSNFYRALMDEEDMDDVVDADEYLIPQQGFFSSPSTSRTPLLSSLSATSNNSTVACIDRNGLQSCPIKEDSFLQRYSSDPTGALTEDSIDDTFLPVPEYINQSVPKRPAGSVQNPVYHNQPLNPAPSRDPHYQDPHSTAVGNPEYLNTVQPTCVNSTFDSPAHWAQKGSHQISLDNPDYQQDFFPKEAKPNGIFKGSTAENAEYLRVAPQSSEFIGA
- TEST_DESCRIPTION: Assay for cell proliferation (BaF3 transformants, CellTiterGlo), Activity for Inhibiting EGFR
- Assay type: cell-based
- MEASUREMENT_CONDITIONS: Table A, potency code; 3 days drug
pIC50: −log10 of the molar value.

- CHEMICAL_SMILES: "C=CC(=O)Nc1cc2c(Nc3ccc4c(cnn4Cc4cccc(F)c4)c3)ncnc2cc1OCCN1CCCCC1"
  MEASURED: "7.30 to 7.52"

State its pIC50 for this molecule: "C=CC(=O)Nc1cc2c(Nc3ccc4c(cnn4Cc4cccc(F)c4)c3)ncnc2cc1OCCN(C)C"
7.30 to 7.52

Complete the entry with pIC50 for "C=CC(=O)Nc1cc2c(Nc3ccc4c(cnn4Cc4cccc(F)c4)c3)ncnc2cc1C#CC(C)(C)N1CCN(C)CC1"
7.30 to 7.52

Consider the molecule "C=CC(=O)Nc1cc2c(Nc3ccc4c(cnn4Cc4cccc(F)c4)c3)ncnc2cc1OCCN1CCOCC1" and give its recorded pIC50.
7.70 to 8.00
